Target: UniProtKB Q6UWP7
Assay: In vitro acyltransferase assay for ALCAT1 inhibitors
Assay type: biochemical
Settings: 1 μM compound; in vitro enzymatic assay

{"columns": ["ENTRY_SMILES", "TARGET_OR_SYSTEM", "% inh @ 1 μM (%)"],
 "data": [
  ["O=C(Nc1cccc(-c2nnc(-c3ccco3)o2)c1)c1cccc2c1OCCC2", "UniProtKB Q6UWP7", 73],
  ["CCOc1ccc(CC)cc1C(=O)Nc1cc(-c2nnc(-c3ccco3)o2)ccc1F", "UniProtKB Q6UWP7", 97],
  ["CCc1ccc(OC)c(C(=O)Nc2cccc(-c3nnc(-c4ccco4)o3)c2)c1", "UniProtKB Q6UWP7", 100],
  ["O=C(Nc1cccc(-c2nnc(-c3ccco3)o2)c1)c1cc(Br)ccc1OCC(F)(F)F", "UniProtKB Q6UWP7", 99]
]}

----------
Biological target: ALCAT1 (Homo sapiens (Human))
Test: In vitro acyltransferase assay for ALCAT1 inhibitors
Format: biochemical
Settings: ALCAT1 enzyme activity; triplicates, GraphPad; read-out: IC50
pIC50: −log10 of the molar value.

{"columns": ["ENTRY_SMILES", "pIC50"],
 "data": [
  ["COc1ccccc1C(=O)Nc1cc(-c2nnc(-c3ccco3)o2)ccc1F", 7.54],
  ["Cc1ccc(F)c(C(=O)Nc2cccc(-c3nnc(-c4ccco4)o3)c2)c1", 6.66],
  ["O=C(Nc1cc(-c2nnc(-c3ccco3)o2)ccc1F)c1cc(Cl)ccc1OCCF", 7.62],
  ["CCOc1ccc(CC)cc1C(=O)Nc1cc(-c2nnc(-c3ccco3)o2)ccc1F", 8.10],
  ["COc1ccc(C(F)(F)F)cc1C(=O)Nc1cccc(-c2nnc(-c3ccco3)o2)c1", 6.92],
  ["O=C(Nc1cccc(-c2nnc(-c3ccco3)o2)c1)c1cc(OC(F)(F)F)ccc1F", 7.02],
  ["O=C(Nc1cccc(-c2nnc(-c3ccco3)o2)c1)c1cc(Br)ccc1OCC(F)(F)F", 7.22],
  ["COc1ccc(OC(F)(F)F)cc1C(=O)Nc1cc(-c2nnc(-c3ccco3)o2)ccn1", 7.21]
]}

----------
Target: ALCAT1 (Homo sapiens (Human), UniProt Q6UWP7)
Sequence (Q6UWP7 whole entry): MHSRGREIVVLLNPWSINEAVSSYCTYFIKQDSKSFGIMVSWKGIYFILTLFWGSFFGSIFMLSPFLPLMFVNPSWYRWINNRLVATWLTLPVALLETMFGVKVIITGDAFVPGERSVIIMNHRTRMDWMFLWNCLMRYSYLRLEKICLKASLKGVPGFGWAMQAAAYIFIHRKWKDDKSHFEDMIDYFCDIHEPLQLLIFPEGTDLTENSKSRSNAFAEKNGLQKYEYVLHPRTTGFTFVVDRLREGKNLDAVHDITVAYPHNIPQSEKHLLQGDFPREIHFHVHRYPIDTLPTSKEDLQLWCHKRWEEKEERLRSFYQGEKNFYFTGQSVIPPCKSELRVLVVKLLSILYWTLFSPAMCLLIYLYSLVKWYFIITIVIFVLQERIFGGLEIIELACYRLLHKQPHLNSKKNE
Test: In vitro acyltransferase assay for ALCAT1 inhibitors
Type: biochemical
Conditions: 10 μM compound; in vitro enzymatic assay
Response key: class 1 means inhibition at 10 µM >= 90%; class 0 means inhibition at 10 µM < 90%.

{"columns": ["COMPOUND", "LABEL_CLASS"],
 "data": [
  ["CCCOc1ccc(Cl)cc1C(=O)Nc1cc(-c2nnc(-c3ccco3)o2)ccc1F", "class 1"],
  ["O=C(Nc1cccc(-c2nnc(-c3ccc(Cl)o3)o2)n1)c1ccccc1F", "class 0"],
  ["COc1ccc(Br)cc1C(=O)Nc1cccc(-c2nnc(-c3ccco3)o2)c1", "class 1"],
  ["O=C(Nc1cccc(-c2nnc(-c3ccco3)o2)c1)c1ccccc1O", "class 0"],
  ["CC(=O)Nc1ccccc1C(=O)Nc1cccc(-c2nnc(-c3ccco3)o2)c1", "class 0"],
  ["COc1ccc(C(=O)O)cc1C(=O)Nc1cccc(-c2nnc(-c3ccco3)o2)c1", "class 0"],
  ["O=C(Nc1ccc(-c2nnc(-c3ccco3)o2)cc1)c1ccccc1F", "class 0"],
  ["COc1ccc(F)cc1C(=O)Nc1cccc(-c2nnc(-c3ccco3)o2)c1", "class 1"],
  ["COc1cccc(F)c1C(=O)Nc1cccc(-c2nnc(-c3ccco3)o2)c1", "class 0"],
  ["O=C(Nc1cccc(-c2nnc(-c3ccco3)o2)c1)c1c(F)cccc1F", "class 0"],
  ["O=C(Nc1cccc(-c2nnc(-c3ccco3)o2)c1)c1ccc(-c2ccccc2)cc1F", "class 0"],
  ["O=C(Nc1cccc(-c2nnc(-c3ccco3)o2)c1)c1cc(Cl)ccc1F", "class 1"],
  ["O=C(Nc1cccc(-c2nnc(-c3ccco3)o2)c1)c1ccco1", "class 0"],
  ["O=C(Nc1cccc(-c2nnc(-c3ccco3)o2)c1)c1ccccc1C(F)F", "class 0"],
  ["O=C(Nc1cccc(-c2nnc(C3CCCO3)o2)c1)c1ccccc1F (centres unmarked)", "class 0"],
  ["O=C(Nc1cccc(-c2nnc(-c3ccsc3)o2)c1)c1ccccc1F", "class 0"],
  ["O=C(Nc1cccc(-c2nnc(-c3ccco3)o2)c1)c1ccc(Br)cc1F", "class 0"],
  ["O=C(Nc1cccc(-c2nnc(-c3ccco3)o2)c1)c1cccc(OCc2ccccc2)c1", "class 1"],
  ["COc1c(Br)cc(Br)cc1C(=O)Nc1cccc(-c2nnc(-c3ccco3)o2)c1", "class 1"]
]}

----------
Measured inhibition at 1 µM by item
Target: UniProt Q6UWP7
Test: In vitro acyltransferase assay for ALCAT1 inhibitors
Assay type: biochemical
Conditions: 1 μM compound; in vitro enzymatic assay
READOUT_LABEL: inhibition at 1 µM (%)

{"columns": ["MOLECULE", "VAL"],
 "data": [
  ["O=C(Nc1cc(-c2nnc(-c3cncs3)o2)ccc1F)c1ccccc1F [Compound 290]", 24],
  ["O=C(Nc1cccc(-c2nnc(-c3ccco3)o2)c1)c1c(F)ccc([N+](=O)[O-])c1F [Compound 344]", 33],
  ["O=C(Nc1cccc(-c2nnc(-c3ccco3)o2)c1)c1c(F)cccc1Cl [Compound 145]", 9],
  ["O=C(Nc1cccc(-c2nnc(-c3ccco3)o2)c1)c1cc(Cl)ccc1F [Compound 189]", 92],
  ["O=C(Nc1cccc(-c2nnc(-c3ccco3)o2)c1)c1cccc(Br)c1F [Compound 191]", 82]
]}

----------
Catalogue of compounds with associated inhibition at 1 µM
Molecular target: UniProtKB Q6UWP7
Assay: In vitro acyltransferase assay for ALCAT1 inhibitors
Assay type: biochemical
Settings: 1 μM compound; in vitro enzymatic assay

{"columns": ["ENTRY_SMILES", "inhibition at 1 µM"],
 "data": [
  ["CCOc1ccc(Br)cc1C(=O)Nc1cccc(-c2nnc(-c3ccco3)o2)c1", "95%"],
  ["O=C(Nc1cccc(-c2nnc(-c3ccco3)o2)c1)c1cccc(-c2ccccc2)c1", "23%"],
  ["O=C(Nc1cccc(-c2nnc(-c3ccco3)o2)c1)c1cccc(F)c1F", "68%"],
  ["O=C(Nc1cc(-c2nnc(-c3ccco3)o2)ccn1)c1ccccc1F", "92%"],
  ["CCOc1ccc(C)cc1C(=O)Nc1cc(-c2nnc(-c3ccco3)o2)ccc1F", "100%"],
  ["O=C(Nc1cccc(-c2nnc(-c3ccco3)o2)c1)c1ccc2c(c1)OCO2", "3%"],
  ["CCCOc1ccc(Cl)cc1C(=O)Nc1cccc(-c2nnc(-c3ccco3)o2)c1", "90%"],
  ["O=C(Nc1cncc(-c2nnc(-c3ccco3)o2)c1)c1ccccc1F", "43%"],
  ["O=C(Nc1cccc(-c2nnc(-c3ccco3)o2)c1)c1ccc(I)cc1", "5%"],
  ["O=C(Nc1cccc(-c2nnc(-c3cnco3)o2)c1)c1ccccc1F", "37%"],
  ["O=C(Nc1cccc(-c2nnc(-c3ccco3)o2)c1)c1cccc([N+](=O)[O-])c1", "29%"],
  ["O=C(Nc1cccc(-c2nnc(-c3ccco3)o2)c1)c1cc(Cl)ccc1OCC(F)(F)F", "92%"],
  ["O=C(Nc1cc(-c2nnc(-c3ccco3)o2)ccc1F)c1cc(Cl)ccc1OCF", "100%"],
  ["O=C(Nc1cc(-c2nnc(-c3ccco3)o2)ccc1F)c1cc(Cl)ccc1OC(F)F", "100%"],
  ["COc1ccc(Br)cc1C(=O)Nc1cc(-c2nnc(-c3ccco3)o2)ccc1F", "100%"],
  ["O=C(Nc1cccc(-c2nnc(-c3ccco3)o2)c1)c1cc(OC(F)(F)F)ccc1F", "95%"],
  ["O=C(Nc1cc(-c2nnc(-c3ccc(Cl)o3)o2)c(F)cc1F)c1ccccc1F", "22%"],
  ["CCOc1ccc(C)cc1C(=O)Nc1cccc(-c2nnc(-c3ccco3)o2)c1", "99%"],
  ["COc1ccc(OC(F)(F)F)cc1C(=O)Nc1cc(-c2nnc(-c3ccco3)o2)ccn1", "96%"],
  ["CCCOc1ccc(Cl)cc1C(=O)Nc1cc(-c2nnc(-c3ccco3)o2)ccc1F", "100%"],
  ["CCCOc1ccccc1C(=O)Nc1cccc(-c2nnc(-c3ccco3)o2)c1", "90%"],
  ["O=C(Nc1cccc(-c2nnc(-c3ccco3)o2)c1)c1ccccc1OCC(F)(F)F", "94%"],
  ["O=C(Nc1cccc(-c2nnc(-c3ccco3)o2)c1)c1ccccc1F", "59%"],
  ["COc1ccc(F)c(C(=O)Nc2cccc(-c3nnc(-c4ccco4)o3)c2)c1", "67%"],
  ["O=C(Nc1cc(-c2nnc(-c3ccco3)s2)ccc1F)c1ccccc1F", "63%"],
  ["Cc1ccc(NC(=O)c2ccccc2F)cc1-c1nnc(-c2ccco2)o1", "20%"]
]}

----------
Biological target: UniProt Q6UWP7
Experiment: In vitro acyltransferase assay for ALCAT1 inhibitors
Assay type: biochemical
Conditions: 1 μM compound; in vitro enzymatic assay
Entries and their inhibition at 1 µM values follow.

{"columns": ["COMPOUND", "TARGET_OR_SYSTEM", "inhibition at 1 µM, %"],
 "data": [
  ["O=C(Nc1cccc(-c2nnc(-c3ccco3)o2)c1)c1cc(F)cc([N+](=O)[O-])c1", "UniProt Q6UWP7", 65],
  ["O=C(Nc1cccc(-c2nnc(-c3ccco3)o2)c1)c1cccc(OCc2ccccc2)c1", "UniProt Q6UWP7", 51],
  ["CCc1ccc(OC)c(C(=O)Nc2cccc(-c3nnc(-c4ccco4)o3)c2)c1", "UniProt Q6UWP7", 94],
  ["O=C(Nc1cccc(-c2nnc(-c3ccco3)o2)c1)c1cc([N+](=O)[O-])ccc1Cl", "UniProt Q6UWP7", 66],
  ["O=C(Nc1cc(-c2nnc(-c3ccco3)o2)ccc1F)c1cc(F)ccc1OCC(F)(F)F", "UniProt Q6UWP7", 96],
  ["O=C(Nc1cc(Cl)ccc1F)c1cccc(-c2nnc(-c3ccco3)o2)c1", "UniProt Q6UWP7", 97],
  ["O=C(Nc1cccc(-c2nnc(-c3ccco3)o2)c1Cl)c1ccccc1F", "UniProt Q6UWP7", 75],
  ["CC(=O)Nc1ccccc1C(=O)Nc1cccc(-c2nnc(-c3ccco3)o2)c1", "UniProt Q6UWP7", 6],
  ["O=C(Nc1cc(-c2nnc(-c3ccno3)o2)ccc1F)c1ccccc1F", "UniProt Q6UWP7", 50],
  ["COc1ccc([N+](=O)[O-])cc1C(=O)Nc1cccc(-c2nnc(-c3ccco3)o2)c1", "UniProt Q6UWP7", 73],
  ["COc1ccc(C(F)(F)F)cc1C(=O)Nc1cc(-c2nnc(-c3ccco3)o2)ccc1F", "UniProt Q6UWP7", 98],
  ["Cc1c(C(=O)Nc2cc(-c3nnc(-c4ccco4)o3)ccc2F)cccc1[N+](=O)[O-]", "UniProt Q6UWP7", 30],
  ["COc1c(NC(=O)c2ccccc2F)cccc1-c1nnc(-c2ccco2)o1", "UniProt Q6UWP7", 29],
  ["O=C(Nc1cccc(-c2nnc(-c3ccco3)o2)c1)c1ccc(-c2ccccc2)cc1F", "UniProt Q6UWP7", 4],
  ["O=C(Nc1cccc(-c2nnc(-c3ccco3)o2)c1)c1cccc([N+](=O)[O-])c1F", "UniProt Q6UWP7", 72],
  ["CCCOc1ccc(F)cc1C(=O)Nc1cccc(-c2nnc(-c3ccco3)o2)c1", "UniProt Q6UWP7", 83],
  ["O=C(Nc1cccc(-c2nnc(-c3ccco3)o2)c1)c1cc(F)c(F)cc1F", "UniProt Q6UWP7", 73],
  ["CCOc1ccc(Cl)cc1C(=O)Nc1cccc(-c2nnc(-c3ccco3)o2)c1", "UniProt Q6UWP7", 100],
  ["O=C(Nc1cccc(-c2nnc(C3CCCO3)o2)c1)c1ccccc1F (stereo not drawn)", "UniProt Q6UWP7", 20],
  ["O=C(Nc1cccc(-c2nnc(-c3cc[nH]n3)o2)c1)c1ccccc1F", "UniProt Q6UWP7", 15],
  ["CCCCOc1ccccc1C(=O)Nc1cc(-c2nnc(-c3ccco3)o2)ccc1F", "UniProt Q6UWP7", 56],
  ["O=C(Nc1ccc(-c2nnc(-c3ccco3)o2)cc1)c1ccccc1F", "UniProt Q6UWP7", 16],
  ["COc1ccc(OC(F)(F)F)cc1C(=O)Nc1cccc(-c2nnc(-c3ccco3)o2)c1", "UniProt Q6UWP7", 97],
  ["O=C(Nc1cccc(-c2nnc(-c3ccco3)o2)c1)c1ccccc1C(F)F", "UniProt Q6UWP7", 47],
  ["O=C(Nc1cccc(-c2nnc(-c3ccco3)o2)c1)c1cccc(O)c1", "UniProt Q6UWP7", 2],
  ["Cc1c(NC(=O)c2ccccc2F)cccc1-c1nnc(-c2ccco2)o1", "UniProt Q6UWP7", 42],
  ["COc1cccc(F)c1C(=O)Nc1cccc(-c2nnc(-c3ccco3)o2)c1", "UniProt Q6UWP7", 17]
]}
